System: CHP-212 (Neuroblastoma);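 also: after 72 h of two-drug dosing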
assay-details: Bliss excess, mean over the matrix (fraction); higher = more synergy
quantity-kind: Bliss excess
One number for each entry.

Look over these answered cases.
molecule: C=CCn1c(=O)c2cnc(Nc3ccc(N4CCN(C)CC4)cc3)nc2n1-c1cccc(C(C)(C)O)n1 [AZD1775] + C[C@@H]1COCCN1C2=NC(=NC(=C2)C3(CC3)[S@](=N)(=O)C)C4=C5C=CNC5=NC=C4 [AZD6738] (first compound max 1 µM, partner max 10 µM)
measured-on: CHP-212 (Neuroblastoma)
Bliss excess: -0.0567
--
molecule: C[C@@H](c1ccc2nccn2c1)n1nnc2ncc(-c3cnn(C)c3)nc21 [Savolitinib] + Cc1c2c(nn1C)CSCc1cc(n(C)n1)CSc1cc(c3ccccc3c1)OCCCc1c(C(=O)O)n(C)c3c-2c(Cl)ccc13 [AZD5991] (first compound max 1 µM, 7x7, partner max 1 µM)
measured-on: CHP-212 (Neuroblastoma)
Bliss excess: -0.0437
--
molecule: NC1(C(=O)N[C@@H](CCO)c2ccc(Cl)cc2)CCN(c2ncnc3[nH]ccc23)CC1 [Capivasertib] + CCN(CCO)CCCOc1ccc2c(Nc3cc(CC(=O)Nc4cccc(F)c4)[nH]n3)ncnc2c1 [AZD2811] (first compound max 10 µM, 7x7, partner max 1 µM)
measured-on: CHP-212 (Neuroblastoma)
Bliss excess: -0.008

List Bliss excess for every entry below, keeping the order given.
1. CN(CCO)CC[C@H](CSc1ccccc1)Nc1ccc(S(=O)(=O)NC(=O)c2ccc(N3CCC([C@@H](O)c4ccccc4-c4ccc(Cl)cc4)CC3)cc2)cc1S(=O)(=O)C(F)(F)F [AZD4320] + CCN(CCO)CCCOc1ccc2c(Nc3cc(CC(=O)Nc4cccc(F)c4)[nH]n3)ncnc2c1 [AZD2811] (first compound max 1 µM, 7x7, partner max 1 µM)
2. Cc1c2c(nn1C)CSCc1cc(n(C)n1)CSc1cc(c3ccccc3c1)OCCCc1c(C(=O)O)n(C)c3c-2c(Cl)ccc13 [AZD5991] + C[C@@H]1COCCN1C2=NC(=NC(=C2)C3(CC3)[S@](=N)(=O)C)C4=C5C=CNC5=NC=C4 [AZD6738] (first compound max 1 µM, 7x7, partner max 10 µM)

1. 0.0016
2. 0.0122

For each of the items listed, what is its Bliss excess?
1. COc1cccc(OCCCN)c1-c1cc(Nc2cnc(C#N)cn2)n[nH]1 [Prexasertib] + C[C@@H]1COCCN1C2=NC(=NC(=C2)C3(CC3)[S@](=N)(=O)C)C4=C5C=CNC5=NC=C4 [AZD6738] (first compound max 1 µM, 7x7, partner max 10 µM)
2. NC1(C(=O)N[C@@H](CCO)c2ccc(Cl)cc2)CCN(c2ncnc3[nH]ccc23)CC1 [Capivasertib] + CC(C)n1c(=O)n(C)c2cnc3cc(F)c(-c4ccc(OCCCN5CCCCC5)nc4)cc3c21 [AZD1390] (first compound max 10 µM, 7x7, partner max 0.3 µM)
3. COc1nnc2ccc(N3CCC(c4ccc(OCCN5CCN(C)C(=O)[C@H]5C)cc4)CC3)nn12 [AZD5153] + CN(CC[C@H](CSC1=CC=CC=C1)NC2=C(C=C(C=C2)S(=O)(=O)NC(=O)C3=CC=C(C=C3)N4CCC(CC4)[C@H](C5=CC=CC=C5C6=CC=C(C=C6)Cl)O)S(=O)(=O)C(F)(F)F)CCO [AZD4320] (first compound max 1 µM, 7x7, partner max 1 µM)
4. CN(CCO)CC[C@H](CSc1ccccc1)Nc1ccc(S(=O)(=O)NC(=O)c2ccc(N3CCC([C@@H](O)c4ccccc4-c4ccc(Cl)cc4)CC3)cc2)cc1S(=O)(=O)C(F)(F)F [AZD4320] + Cc1cc2ncnn2cc1Nc1ncc2c(n1)n(C1CCOCC1)c(=O)n2C [AZD7648] (first compound max 1 µM, 7x7, partner max 10 µM)
5. CCN(CCO)CCCOc1ccc2c(Nc3cc(CC(=O)Nc4cccc(F)c4)[nH]n3)ncnc2c1 [AZD2811] + C[C@@H]1COCCN1C2=NC(=NC(=C2)C3(CC3)[S@](=N)(=O)C)C4=C5C=CNC5=NC=C4 [AZD6738] (first compound max 1 µM, 7x7, partner max 10 µM)
6. COc1nnc2ccc(N3CCC(c4ccc(OCCN5CCN(C)C(=O)[C@H]5C)cc4)CC3)nn12 [AZD5153] + Cc1c2c(nn1C)CSCc1cc(n(C)n1)CSc1cc(c3ccccc3c1)OCCCc1c(C(=O)O)n(C)c3c-2c(Cl)ccc13 [AZD5991] (first compound max 1 µM, 7x7, partner max 1 µM)
7. CC(=O)c1c(C)c2cnc(Nc3ccc(N4CCNCC4)cn3)nc2n(C2CCCC2)c1=O [Palbociclib] + CC1(C)CCC(CN2CCN(c3ccc(C(=O)NS(=O)(=O)c4ccc(NCC5CCOCC5)c([N+](=O)[O-])c4)c(Oc4cnc5[nH]ccc5c4)c3)CC2)=C(c2ccc(Cl)cc2)C1 [Venetoclax] (first compound max 10 µM, 7x7, partner max 1 µM)
8. CN(C)CCCOc1ccc(-c2ccc3ncc4c(c3c2)n(C2CCOCC2)c(=O)n4C)cn1 [AZD0156] + C[C@@H]1COCCN1C2=NC(=NC(=C2)C3(CC3)[S@](=N)(=O)C)C4=C5C=CNC5=NC=C4 [AZD6738] (first compound max 1 µM, 7x7, partner max 10 µM)

[-0.0776, -0.0965, -0.0243, -0.0441, -0.0822, -0.0281, 0.023, -0.0047]
